Measured TGI of individual entries
- System: RPMI-8226 leukemia
- Experiment: NCI tumour cell line growth inhibition, 48 h

1. CC1C=CC(C)C2(O)C(=O)NC(O)C12 (stereo not drawn) = > 100 µM
2. O=C(N/N=c1/ccoc2cccnc12)N1CCN(c2ncccn2)CC1 = 2.04 µM
3. Cn1ccnc1C(=O)/C=C/c1ccc(C(=O)Nc2ccccc2O)cc1 = 3.8 µM
4. O=c1[nH]cc(N(CCCl)CCCl)c(=O)[nH]1 = 284 µM
5. C=CCOC(=O)CCCCCCCCCCCCCCCOC(=O)c1c(CCC[C@@H](C)O[Si](C)(C)C(C)(C)C)nc(=O)n2c1CC[C@H]2CC1(CC/C=C\[C@H](CC)O[Si](C(C)C)(C(C)C)C(C)C)OCCO1 = > 100 µM
6. O=c1c[n+](-c2ccccc2)[nH]o1 = > 100 µM
7. CC(C)=CCc1ccc(O)c(=O)cc1C(C)C = > 91.3 µM
8. O=C1Nc2ccccc2/C1=C/c1cn(C(=O)c2c(Cl)cccc2Cl)c2ccccc12 = 23.6 µM

Entry COc1cccc(C2C(C(=O)O)=C(CO)Oc3cc4c(cc32)OCO4)c1 (stereo not drawn) has what TGI?
> 100 µM

What TGI value was documented for this compound, N#Cc1c(-c2ccc(Cl)cc2)c(-c2ccc(Cl)cc2)nn(CCOC(=O)CCC(=O)O)c1=O ?
> 60 µM

Endpoint output: TGI of COC(=O)C1=COC2OC3/C(=C\c4ccc(O)c(OC)c4)C(=O)OC34C=CC1C24 (stereo not drawn) . Value?
> 100 µM

# lookup: TGI of O=c1[nH]ccc2nc(-c3ccc(CN4CCC(c5nc(-c6ccccn6)n[nH]5)CC4)cc3)c(-c3ccccc3)cc12
> 50.2 µM

Which TGI reading was recorded for the compound COc1ccc(/C(=N\O)c2cc(OC)c(OC)c(OC)c2)c(OC)c1N ?
> 100 µM
